test_details: CCTE_Shafer_MEA_acute_cross_correlation_area: CCTE's Neural Acute Assay for Area of Cross Correlation, Shafer Lab (AID 2284024);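 further: area under pooled inter-electrode spike cross-correlation near zero lag as percent change from own baseline; curves fitted for loss of cross-correlation area so actives lower synchrony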;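 on outcome: rat primary cortical neuron networks on 48-well MEA at DIV 13 or 15 with 40 min exposure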
Active and inactive are the calls of the source. How the source made its calls: active means hit-call score of the fitted dose curve at least 0.9, where 1 is the maximum; inactive means score below 0.9.
Could you please pick one outcome from this set? 1 (active), 0 (inactive)

## Input Recorded test outcome, item Cc1[nH]cnc1C[C@H]1CCc2c(C)c3ccccc3n2C1=O
## Output 0

## Input What did the test return for On1ccccc1=S ?
## Output 0

## Input Record lookup: outcome of this test for Cn1c(=O)c2c(ncn2C)n(C)c1=O ?
## Output 0

## Input Fill in: this test's call for COc1cccc(-c2ccc(/C=C\CN3CCCCCC3)cc2Cl)c1 is ___
## Output 1

## Input Recorded test outcome, item O=C(O)CCN(C1(C(=O)NO)CCCC1)S(=O)(=O)c1ccc(Oc2ccc(F)cc2)cc1
## Output 0

## Input Look up the recorded call for CCCCC(CC)COC(=O)CCCCCCCCC(=O)OCC(CC)CCCC (stereo unspecified) in this test.
## Output 0

## Input Hey, what did the test say about CC[C@H]1OC(=O)[C@H](C)[C@@H](O[C@H]2C[C@@](C)(OC)[C@@H](O)[C@H](C)O2)[C@H](C)[C@@H](O[C@@H]2O[C@H](C)C[C@H](N(C)C)[C@H]2O)[C@](C)(O)C[C@@H](C)C(=O)[C@H](C)[C@@H](O)[C@]1(C)O ?
## Output 0

## Input So what was the verdict on CC[C@H]1CC[C@H](NCc2cc3c(cc2OC)[C@H]2C[C@H]2C(=O)N3C)[C@H](c2ccccc2)N1 in this test?
## Output 0

## Input In this assay, the call recorded for CCCCCCc1ccc(O)cc1O was what?
## Output 0

## Input # outcome recorded in this test, key = O=C(O)c1cc(N=Nc2ccc(S(=O)(=O)Nc3ccccn3)cc2)ccc1O
## Output 0

## Input Please let me know the test result on file for CCOC(=O)c1ccc(C2CCC(NC[C@H](O)COc3ccc(O)c(NS(C)(=O)=O)c3)CC2)cc1 (stereo partly specified) .
## Output 0

----------
test_details: ATG_Sox_CIS: Attagene CIS-FACTORIAL HepG2 Assay for human SRY-box transcription factor (SOX) (AID 2282960)
assay_conditions: HepG2 Attagene cis-factorial SOX reporter, mRNA; actives raise or lower the signal
Activity calls are given as the source filed them. Rule for the calls: active = hit-call score of the fitted dose curve at least 0.9, where 1 is the maximum; inactive = score below 0.9.
Your reply should match one of these outcome classes. class 1 = active, class 0 = inactive

## Input # outcome recorded in this test, key = O=C(O)c1cc(N=Nc2ccc(S(=O)(=O)Nc3ccccn3)cc2)ccc1O
## Output class 0

## Input Dear all, I need the recorded test outcome for CC(=O)c1ccc2c(c1)[C@H](NC(=O)c1ccc(F)cc1)[C@@H](O)C(C)(C)O2 , thank you.
## Output class 0

## Input Query: recorded result category for CNCc1ccc(NC(=O)c2c[nH]c3c2C(=O)CCC3)cc1 in this test
## Output class 0

## Input What did this assay record as the result for Cc1[nH]cnc1C[C@H]1CCc2c(C)c3ccccc3n2C1=O ?
## Output class 0

## Input Just curious, what result did CN(C)c1ccc(N=NS(=O)(=O)O)cc1 get here?
## Output class 0

## Input Recorded call for O=C1CCC(N2C(=O)c3ccccc3C2=O)C(=O)N1 (centres undefined) ?
## Output class 0

## Input For COc1ccc(/C=C/S(=O)(=O)NC(=O)c2ccc(C)cc2Cl)cc1 , which call appears in the assay record?
## Output class 0

## Input Hello, I am checking results. What call was entered for CC(C)c1cccc(C(C)C)c1N1C(=O)c2ccc(O)cc2C1=O ?
## Output class 1

## Input What call does the record list for CC(C)CCCCCCCOC(=O)CCCCC(=O)OCCCCCCCC(C)C ?
## Output class 0

## Input Give the logged outcome of this assay for the following compound: Cn1c(=O)cc(Oc2ccc(F)cc2F)c2cnc(NCC(C)(C)O)nc21
## Output class 0

## Input Kindly provide the recorded test outcome for the following compound: O=C(O)c1cccc(N(Cc2cccnc2)c2ccc(OC(F)F)c(OC(F)F)c2)c1
## Output class 0

## Input What is the recorded call for this compound in the test? CCN(C(=O)c1cc(C)cc(OC[C@H](C)Nc2ccncc2)c1)C(C)C
## Output class 0

## Input Give the logged outcome of this assay for the following compound: CC(C)CCCCCCOC(=O)c1ccc(C(=O)OCCCCCCC(C)C)c(C(=O)OCCCCCCC(C)C)c1
## Output class 0

## Input Call for entry CCOC(=O)COc1ccc2c(c1)CC(NCC(O)c1cccc(Cl)c1)CC2 (centres undefined) :
## Output class 0

## Input Write down the call the test reported for this compound. Item: Oc1ccc2c(c1)-c1ccccc1C2
## Output class 1

## Input Hello, I am checking results. What call was entered for CCOCCOCCOCCO ?
## Output class 0

## Input Would you mind telling me which call this test gave C=CC(=C)CCC=C(C)C ?
## Output class 0

## Input // outcome(item) with item = NC(=O)NO
## Output class 0

## Input I would be grateful if you could indicate the recorded call for COC(=O)c1c(Cl)c(Cl)c(C(=O)OC)c(Cl)c1Cl .
## Output class 0

## Input # fetch the recorded call for CC(C)(O)c1coc(S(=O)(=O)NC(=O)Nc2c3c(cc4c2CCC4)CCC3)c1 here
## Output class 0

## Input Outcome? Fc1ccccc1[C@@H](F)COC1CCC(Nc2ncnc3[nH]ncc23)CC1 (some centres undefined)
## Output class 0

## Input Please share the test call associated with C1=CCCC=CCCC=CCC1 .
## Output class 0

## Input Each compound tested received a call. Report the one for CC(O)CN(CCN(CC(C)O)CC(C)O)CC(C)O (centres undefined) .
## Output class 0

## Input Please let me know the test result on file for O=C1OC(=O)C2C3C=CC(C3)C12 (centres undefined) .
## Output class 0

----------
subject_of_test: human Phosphoinositide 3-kinase alpha (PI3Ka), PIK3CA (gene 5290)
test_details: NVS_ENZ_hPI3Ka: NovaScreen (NVS) Enzymatic Assay for human Phosphoinositide 3-kinase alpha (PI3Ka) (AID 2283196)
Inconclusive results are not listed. Active and inactive are the calls of the source. Rule for the calls: active = hit-call score of the fitted dose curve at least 0.9, where 1 is the maximum; inconclusive = response in the unintended direction; inactive = score below 0.9.
measured_metric: AC50

The cases that follow already have their AC50 on record.
[[record]]
chemical_structure = "COc1ccc2sc(C(=O)Nc3nnn[nH]3)c(OC(C)C)c2c1"
recorded_measurement = "192 nM (active)"

[[record]]
chemical_structure = "CC[C@H](C)C(=O)O[C@H]1C[C@@H](C)C=C2C=C[C@H](C)[C@H](CC[C@@H]3C[C@@H](O)CC(=O)O3)[C@H]21"
recorded_measurement = "inactive"

[[record]]
chemical_structure = "CC(C)c1cccc(C(C)C)c1N1C(=O)c2ccc(O)cc2C1=O"
recorded_measurement = "533 nM (active)"

[[record]]
chemical_structure = "O=C(O)c1cccc(Oc2ccccc2)c1"
recorded_measurement = "inactive"

[[record]]
chemical_structure = "Cc1ccc(N)cc1O"
recorded_measurement = "inactive"


Attention now turns to another entry.
O=C(O)c1cc(N=Nc2ccc(S(=O)(=O)Nc3ccccn3)cc2)ccc1O on human Phosphoinositide 3-kinase alpha (PI3Ka), PIK3CA (gene 5290) gives AC50 = inactive

----------
subject_of_test: human Opioid Receptor Mu (Opiate Mu), OPRM1 (gene 4988)
test_details: NVS_GPCR_hOpiate_mu: NovaScreen (NVS) G Protein-Coupled Receptor Assay for human Opioid Receptor Mu (Opiate Mu) (AID 2283290);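 further: hits lower bound tracer signal versus DMSO meaning displacement of the ligand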
Inconclusive results are not listed. Calls of active or inactive are those of the source. Rule for the calls: active = hit-call score of the fitted dose curve at least 0.9, where 1 is the maximum; inconclusive = response in the unintended direction; inactive = score below 0.9.
Returns: one label drawn from active, inactive

## Input Could you kindly confirm the outcome this assay logged for CCOc1cccc(-n2cc(C(=O)N3CCN(c4cc(C(=O)O)c5ccccc5c4)CC3)nc2-c2ccc(C)cc2)c1 ?
## Output active

## Input Returns: the outcome recorded for On1ccccc1=S in this assay.
## Output inactive

## Input // return assay outcome for CC[C@H]1CC[C@H](NCc2cc3c(cc2OC)[C@H]2C[C@H]2C(=O)N3C)[C@H](c2ccccc2)N1
## Output active

## Input What was the test verdict on COc1cccc(-c2ccc(/C=C\CN3CCCCCC3)cc2Cl)c1 ?
## Output active

## Input Query: recorded result category for CCCCCCc1ccc(O)cc1O in this test
## Output inactive

## Input // return assay outcome for CC(C)=CCCC(C)CCO (stereo not given)
## Output inactive

## Input Please share the test call associated with Cc1[nH]cnc1C[C@H]1CCc2c(C)c3ccccc3n2C1=O .
## Output active

## Input Dear all, I need the recorded test outcome for O=C(O)CC(O)C(=O)O (stereo not given) , thank you.
## Output inactive

## Input Given CCn1nc(Cc2ccccc2)cc1C1CCN(C[C@H]2C[C@H](N(C)[C@@H](C(=O)O)C(C)C)C[C@@H]2c2cccc(F)c2)CC1 , state the outcome it received in this test.
## Output active

## Input How did this test come out for CCC(C)(C)C(=O)O[C@H]1C[C@@H](C)C=C2C=C[C@H](C)[C@H](CC[C@@H]3C[C@@H](O)CC(=O)O3)[C@H]21 ?
## Output inactive
